Entry source: PubChem BioAssay (NCI)

Listing of recorded TGI by entry.
# Tested on: NCI-H23 lung
# Experiment: NCI tumour cell line growth inhibition, 48 h
# value in µM; strip the unit string

Answered examples (2):
molecule="COC1C(O)C(C)OC(OC2CC3CCC4C(CCC5(C)C(C6=CC(=O)OC6)CCC45O)C3(O)C(OC(C)=O)C2)C1O (configuration not stated)" output_unit=µM readout_value=2.61
molecule=O=C1/C(=C\c2ccc(F)cc2)CCOc2c1ccc1ccccc21 output_unit=µM readout_value=39.4

// moving on: another record for TGI
Ask: Please report the measured TGI for CN1CCN(c2ccc(NC3=C(Cl)C(=O)c4ncccc4C3=O)cc2C#N)CC1
Result: 6.22

----------
# Test system: M14 melanoma
# Experiment: NCI tumour cell line growth inhibition, 48 h
Quantity: TGI (µM)
# value in µM; strip the unit string

compound=Cc1ccc2c(c1)O/C(=C\c1ccc([N+](=O)[O-])o1)C2=O tgt="M14 melanoma" readout_value=4.07
compound=O=C(Nc1ccccc1O)c1ccc(CNC(=O)c2sccc2Nc2ccnc(C(F)(F)F)c2)cc1 tgt="M14 melanoma" readout_value=27.8
compound=CCOC(=O)c1sc2nc(-c3ccccc3)nn2c1CBr tgt="M14 melanoma" readout_value=2.85

Ask: Please report the measured TGI for CCCCCC(O)(CCCCC)CCCCCCCCC1=C(O)c2[nH]c(=O)ccc2C(=O)C1=O
Result: 21.6

Ask: Please report the measured TGI for COc1ccc(/C=C(/C)[N+](=O)[O-])cc1
Result: 7.92

Ask: Please report the measured TGI for C[S+](C)CC(=O)c1ccc2c(c1)Sc1ccccc1O2
Result: 3.48

Ask: Please report the measured TGI for O=C1c2ccn(CCCCN3CCCCC3)c2C(=O)c2c1c(O)c1ccccc1c2O
Result: 9.7

Ask: Please report the measured TGI for COc1ccc(C(=O)N(C(=O)N2CCN(c3ccccc3)CC2)S(=O)(=O)c2ccccc2)cc1
Result: 42.6

Ask: Please report the measured TGI for CC(O)C(O)C(O)C(/C=N\Nc1ccccc1)=N/Nc1ccccc1 (centres undefined)
Result: 27.9

Ask: Please report the measured TGI for CC(CN1CCN(CC(C)Nc2ccnc3cc(Cl)ccc23)CC1)Nc1ccnc2cc(Cl)ccc12 (centres undefined)
Result: 10.5

----------
Listing of recorded TGI by entry.
# Tested on: UACC-257 melanoma
# Experiment: NCI tumour cell line growth inhibition, 48 h
# value in µM; strip the unit string

compound="COc1ccc(C2c3cc4c(cc3OC(O)(CO)C2C(=O)O)OCO4)cc1 (centres undefined) (tested in a mixture with another compound)" readout_value=50.8

// moving on: another record for TGI
Ask: Please report the measured TGI for O=[N+]([O-])[O-].O=[N+]([O-])[O-].[Au].[Au].c1ccc([P-]c2ccccc2)cc1.c1ccc([P-]c2ccccc2)cc1
Result: 62.7

----------
Listing of recorded TGI by entry.
# Tested on: A549 NSCLC
# Experiment: NCI tumour cell line growth inhibition, 48 h

Answered examples (2):
molecule=Cc1nc2ncn3c(c-2c1Cc1ccccc1)NC=C(O)N3 quantity=TGI readout_value="> 100 µM"
molecule="NC(Cc1ccnnc1)C(=O)O (stereo not drawn)" quantity=TGI readout_value="> 100 µM"

Ask: Report its TGI with A549 NSCLC as the test system: Nc1ccc(Oc2ccc(C34CC5CC(C3)CC(c3ccc(Oc6ccc(N)cc6)cc3)(C5)C4)cc2)cc1
Result: > 60.7 µM

----------
# System: KM12 colon
# Experiment: NCI tumour cell line growth inhibition, 48 h; in the data active = GI50 below about 0.43 µM; inactive = the rest
Tick one outcome: True = active, False = inactive

Answered examples (2):
compound=CO[C@@]12C[C@H]3[C@@H]([C@@H](O)[C@@H](OC(=O)/C=C/c4ccccc4)[C@@]4(O)C(C)(C)CCC[C@]34C)[C@@H](C)C1=CC(=O)O2 answer_label=False
compound=O=C(Nc1ccc(Cl)cc1)c1cc(S(=O)(=O)Nc2nnc(-c3ccccc3)c(-c3ccccc3)n2)c(SCc2ccccc2)cc1Cl answer_label=False

Ask: Could you kindly confirm the outcome this assay logged for C(=C\c1nccc2c1[nH]c1ccccc12)/c1ccccc1 ?
Result: False

----------
Listing of recorded TGI by entry.
# Tested on: SF-539 CNS
# Experiment: NCI tumour cell line growth inhibition, 48 h

compound="CC(C)(C)[Si](C)(C)OCC1C=CC(n2cnc3c(N)ncnc32)O1 (stereo not drawn)" readout_value="> 81.5 µM"
compound="CC(=O)NC(CCCNC(=O)NCCCl)C(=O)NCc1ccccc1 (stereo not drawn)" readout_value="> 100 µM"

// moving on: another record for TGI
Ask: Please report the measured TGI for COC(=O)c1nc(-c2nc(CCNC(=O)OC(C)(C)C)sc2Cl)sc1Cl
Result: > 100 µM

----------
Listing of recorded TGI by entry.
# System: NCI-H226 lung
# Experiment: NCI tumour cell line growth inhibition, 48 h

Answered examples (4):
molecule=COC(CN(C=O)[C@@H](c1ccc(Cl)cc1)c1cc2ccccc2o1)OC tgt="NCI-H226 lung" readout_value="34 µM"
molecule=Cc1n[nH]c(=O)n1/N=C/c1ccncc1 tgt="NCI-H226 lung" readout_value="> 100 µM"
molecule=C/C(CC(=O)NC1=CC=C(NC(=O)C/C(C)=N\Nc2ccccc2)CC1)=N/Nc1ccccc1 tgt="NCI-H226 lung" readout_value="> 100 µM"
molecule="CC1SC(c2c(Cl)cccc2Cl)N(NC(=O)C(O)c2ccccc2)C1=O (configuration not stated)" tgt="NCI-H226 lung" readout_value="> 100 µM"

Ask: Report its TGI with NCI-H226 lung as the test system: O=c1c2ccccc2nc(-c2ccccc2)n1O
Result: > 100 µM

Ask: Report its TGI with NCI-H226 lung as the test system: COc1ccc(N=Nc2ccc3oc(=O)c(C(=O)Nc4ccc(Cl)cc4)cc3c2)cc1
Result: > 10 µM

Ask: Report its TGI with NCI-H226 lung as the test system: CCCCCCCCCCCCCC(=O)C(C)N (configuration not stated)
Result: 44.3 µM

Ask: Report its TGI with NCI-H226 lung as the test system: Clc1ccc(C=NC23CC4CC(CC(C4)C2)C3)cc1Cl
Result: > 10 µM

Ask: Report its TGI with NCI-H226 lung as the test system: COc1cc(-c2cc(/C=C3\C(=O)Nc4ccccc43)[nH]n2)cc(OC)c1OC
Result: 15.5 µM

Ask: Report its TGI with NCI-H226 lung as the test system: COC(=O)C1=C(O)CCCC(CCC(C)=O)=C1
Result: > 100 µM

Ask: Report its TGI with NCI-H226 lung as the test system: CCCCCC(O)(CCCCC)CCCCCCCCC1=C(O)c2[nH]c(=O)ccc2C(=O)C1=O
Result: 28.8 µM

Ask: Report its TGI with NCI-H226 lung as the test system: COC1C(O)C(C)OC(OC2CC3CCC4C(CCC5(C)C(C6=CC(=O)OC6)CCC45O)C3(O)C(OC(C)=O)C2)C1O (configuration not stated)
Result: 10.3 µM

Ask: Report its TGI with NCI-H226 lung as the test system: CC(=O)[C-](C(C)=O)c1ccccc1.CC(=O)[C-](C(C)=O)c1ccccc1.CC[O-].CC[O-].[Ti+4]
Result: > 100 µM

Ask: Report its TGI with NCI-H226 lung as the test system: Cc1cc(=O)oc2c(C)c3oc(CBr)c(Br)c3cc12
Result: > 100 µM

Ask: Report its TGI with NCI-H226 lung as the test system: COC(=S)OC1CC(n2cnc3c(N)ncnc32)OC1CO[Si](C)(C)C(C)(C)C (configuration not stated)
Result: 59.2 µM

Ask: Report its TGI with NCI-H226 lung as the test system: CN(NC(=O)/C(=C\c1ccco1)NC(=O)c1ccccc1)c1cn[nH]c(=O)c1Cl
Result: > 100 µM

Ask: Report its TGI with NCI-H226 lung as the test system: CCNc1nc2c(ncn2C2CC(O)C(COP(=O)(O)O)O2)c(=O)[nH]1 (configuration not stated)
Result: > 100 µM

Ask: Report its TGI with NCI-H226 lung as the test system: Nc1cc(N2CCOCC2)nc(=O)n1-c1ccc(Cl)cc1
Result: > 100 µM

Ask: Report its TGI with NCI-H226 lung as the test system: COc1cc(NCC2COc3c(ccc(OC)c3OC)C2=O)c([N+](=O)[O-])cc1OC (configuration not stated)
Result: > 100 µM

Ask: Report its TGI with NCI-H226 lung as the test system: COc1ccc(-c2nnc(N3CCN(C(=O)CN4CCN(c5ccc(Cl)cc5)CC4)CC3)nc2-c2ccc(OC)cc2)cc1
Result: > 100 µM

Ask: Report its TGI with NCI-H226 lung as the test system: CC(CN1CCN(CC(C)Nc2ccnc3cc(Cl)ccc23)CC1)Nc1ccnc2cc(Cl)ccc12 (configuration not stated)
Result: > 69.5 µM

Ask: Report its TGI with NCI-H226 lung as the test system: CCc1cccc(CC)c1NC(=O)C1=C(C)NC(C)=C(C(=O)Nc2c(CC)cccc2CC)C1c1ccc2c(c1)OCO2
Result: 28.6 µM
